- ASSAY SYSTEM: JAK3 (Homo sapiens, UniProt P52333)
- Sequence (P52333 whole entry): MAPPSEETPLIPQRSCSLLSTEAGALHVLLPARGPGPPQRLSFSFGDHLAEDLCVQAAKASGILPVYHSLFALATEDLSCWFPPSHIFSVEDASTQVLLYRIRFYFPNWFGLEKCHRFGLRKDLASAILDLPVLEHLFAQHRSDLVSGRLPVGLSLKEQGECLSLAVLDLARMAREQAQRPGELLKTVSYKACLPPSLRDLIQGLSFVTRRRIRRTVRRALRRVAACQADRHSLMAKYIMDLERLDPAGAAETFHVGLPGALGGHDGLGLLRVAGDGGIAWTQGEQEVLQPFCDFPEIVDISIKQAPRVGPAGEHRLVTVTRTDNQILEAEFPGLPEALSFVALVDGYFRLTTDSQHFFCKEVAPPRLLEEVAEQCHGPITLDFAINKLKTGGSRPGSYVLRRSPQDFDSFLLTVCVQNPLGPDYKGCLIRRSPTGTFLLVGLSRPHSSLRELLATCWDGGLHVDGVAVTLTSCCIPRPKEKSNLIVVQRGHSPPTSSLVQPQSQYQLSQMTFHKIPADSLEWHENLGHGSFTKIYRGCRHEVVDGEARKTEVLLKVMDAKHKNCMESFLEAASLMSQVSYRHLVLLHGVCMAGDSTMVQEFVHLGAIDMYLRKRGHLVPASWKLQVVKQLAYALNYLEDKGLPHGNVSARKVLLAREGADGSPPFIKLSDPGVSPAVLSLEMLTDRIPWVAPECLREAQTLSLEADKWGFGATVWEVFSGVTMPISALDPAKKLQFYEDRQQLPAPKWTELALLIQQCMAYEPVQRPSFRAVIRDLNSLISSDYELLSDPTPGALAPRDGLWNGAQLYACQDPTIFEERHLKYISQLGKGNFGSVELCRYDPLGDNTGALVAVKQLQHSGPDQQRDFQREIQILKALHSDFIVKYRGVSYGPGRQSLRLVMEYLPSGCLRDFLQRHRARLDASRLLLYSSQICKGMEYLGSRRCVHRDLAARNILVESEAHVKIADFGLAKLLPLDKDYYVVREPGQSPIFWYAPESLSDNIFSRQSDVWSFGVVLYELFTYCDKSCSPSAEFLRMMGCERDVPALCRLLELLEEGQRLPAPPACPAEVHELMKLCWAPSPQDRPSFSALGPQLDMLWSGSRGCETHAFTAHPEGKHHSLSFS
- TEST: biochemical
- Set-up: radiometric filter-binding kinase inhibition assay (Eurofins Cerep), scintillation counting
- TEST SETTINGS: 1 uM
QUANTITY NAME: inhibition at 1 µM (%)
Numbers only, in %.

COMPOUND	UNIT INFO	inhibition at 1 µM
CCS(=O)(=O)N1CCC2(C)C(Nc3ncnc4[nH]ccc34)CCC12 (centres unmarked) [36d]	%	44

Below are some compounds; for each one, tell me its inhibition at 1 µM.
1. CCS(=O)(=O)NC1CCC2N(c3ncnc4[nH]ccc34)CCC12C (centres unmarked) [40d]
2. C[C@]12CCN(c3ncnc4[nH]ccc34)[C@H]1CC[C@@H]2NC#N (racemic) [40c]
3. C=CC(=O)N[C@H]1CC[C@@H]2N(c3ncnc4[nH]ccc34)CC[C@]12C (racemic) [40b]
4. CC12CCN(c3ncnc4[nH]ccc34)C1CCC2NC(=O)CC#N (centres unmarked) [40a]

Result:
1: 11; 2: 96; 3: 55; 4: 79
